Recorded values, source PubChem BioAssay AID212.

# Tested on: BDF1 mice, colon carcinoma 38 sc, T/C %
# procedure-details: NCI In Vivo Anticancer Drug Screen. Data for tumor model Colon Carcinoma 38 (subcutaneous) in B6D2F1 (BDF1) mice
# applied-conditions: endpoint: median tumor weight (est.); dose: 200.0 mg/kg/injection; schedule: Q07DX002 (ip); vehicle: saline with Tween-80; higher = larger tumour
Records with an inconclusive call do not appear.
// T/C lookup, one value per entry
experimental-readout: T/C

compound=Cc1oc2c(C)c3oc(=O)cc(C)c3cc2c1CCl readout_value="53 % of control"
compound=O=C(O)/C=C/C(=O)N1Cc2cc3ccccc3nc2C1 readout_value="104 % of control"
compound=Cn1c2nc(=O)n(-c3ccccc3)c(=O)c-2nc2c1CCCC2 readout_value="90 % of control"
compound=CCn1cnc2c(=S)nc[nH]c21 readout_value="21 % of control"
compound=O=c1c(O)c(-c2cc(O)c(O)c(O)c2)oc2cc(O)cc(O)c12 readout_value="187 % of control"
compound=COc1ccc(-c2cc(=O)c3cccc(CC(=O)O)c3o2)cc1 readout_value="113 % of control"
compound=O=C(Nc1nncs1)c1ccncc1 readout_value="81 % of control"
compound=Cn1ccc(=Nc2ccc(NC(=O)c3ccc(N=c4ccn(C)c5ccc([N+](=O)[O-])cc45)cc3[N+](=O)[O-])cc2)cc1 readout_value="90 % of control"
compound="C(COCCOCC1CO1)OCCOCC1CO1 (centres undefined)" readout_value="113 % of control"

###

# Test system: BDF1 mice, colon carcinoma 38 sc, T/C %
# procedure-details: NCI In Vivo Anticancer Drug Screen. Data for tumor model Colon Carcinoma 38 (subcutaneous) in B6D2F1 (BDF1) mice
# applied-conditions: endpoint: median tumor weight (est.); dose: 50.0 mg/kg/injection; schedule: Q07DX002 (ip); vehicle: saline with Tween-80; higher = larger tumour
Results filed as inconclusive are left out.
experimental-readout: T/C

compound=Cc1cc2cc3cc(C)c(N)cc3nc2cc1N experimental_readout=T/C readout_value="54 % of control"
compound="CC1(C)CC2(C)OC2C2(C1)N=NC(=Nc1ccccc1)O2 (stereo not given)" experimental_readout=T/C readout_value="119 % of control"
compound="CC[C@H](CC[C@@H](C)C1CC[C@H]2[C@@H]3CC=C4C[C@@H](OP(=O)(N5CC5)N5CC5)CC[C@]4(C)[C@H]3CC[C@]12C)C(C)C (stereo not given in full)" experimental_readout=T/C readout_value="95 % of control"
compound=CCOC(=O)c1cn(C)c2c1C(O)=C(C(=O)OC)CC(=O)N2 experimental_readout=T/C readout_value="81 % of control"
compound="O=C1CC(C(=O)N2Cc3cc4ccccc4nc3C2)CO1 (stereo not given)" experimental_readout=T/C readout_value="122 % of control"
compound=[O-][n+]1c(CN2CCCCC2)nc2cccc3c2c1-c1ccccc1-3 experimental_readout=T/C readout_value="47 % of control"
compound=CC1(C)CC1(Br)Br experimental_readout=T/C readout_value="150 % of control"
compound="CN(C)C1C(=O)C(C(=O)NP(=O)(NCCCO)N(CCCl)CCCl)=C(O)C2(O)C(=O)C3=C(O)c4c(O)cccc4C(C)(O)C3CC12 (stereo not given)" experimental_readout=T/C readout_value="82 % of control"
compound="COC1C(O)C(C)OC(OC2C(Oc3cccc4c(O)c5c(=O)oc6ccc(C)c7c(=O)oc(c34)c5c67)OC(C)C(O)C2O)C1O (stereo not given)" experimental_readout=T/C readout_value="84 % of control"
compound=COc1ccc(OC)c(/C=C/c2ccnc3ccccc23)c1 experimental_readout=T/C readout_value="86 % of control"
